system: Propionibacterium acnes (GAI 5419); assay: In vitro anti-bacterial activity (MIC90), anaerobic reference bacteria; type: cell-based; details: Cutibacterium acnes
Value Kind: MIC90 (µg/mL)

>>> df
                                   compound                              target  value_kind  reported_value
0  C[C@@H]1CN(c2c(F)c(N)c3c(=O)c(C(=O)O)cn(C4CC4)c3c2F)C[C@H](C)N1  Propionibacterium acnes (GAI 5419)       MIC90            0.39
1  CC1COc2c(N3CCN(C)CC3)c(F)cc3c(=O)c(C(=O)O)cn1c23 (stereo not shown)  Propionibacterium acnes (GAI 5419)       MIC90            0.78
2  NC1CCCCN(c2c(F)cc3c(=O)c(C(=O)O)cn(C4CC4)c3c2Cl)C1 (stereo not shown)  Propionibacterium acnes (GAI 5419)       MIC90             0.2
3  CC1CCc2c(N3CCC(O)CC3)c(F)cc3c(=O)c(C(=O)O)cn1c23 (stereo not shown)  Propionibacterium acnes (GAI 5419)       MIC90             0.2

# credit: patent US20080200442A1
